System Under Test: Prothrombin (Bos taurus, UniProt P00735)
Each entry below lists one item and its recorded pIC50 value.
Give only the number. pIC50 is defined as minus log10 of concentration in molar units.

Compound: CCCCCCCCCCCC(=O)OCC1OC(Oc2cc3ccc(=O)oc3cc2O)C(O)C(O)C1O (configuration not stated) [Esculin laurate]
Quantity Measured: pIC50
Experimental Result: 4.22
--
Compound: CC/C=C\C/C=C\C/C=C\CCCCCCCC(=O)OC1C(C)OC(OCC2OC(Oc3c(-c4ccc(O)c(O)c4)oc4cc(O)cc(O)c4c3=O)C(O)C(O)C2O)C(O)C1O (configuration not stated) [Rutin linolenate]
Quantity Measured: pIC50
Experimental Result: 5.15
--
Compound: CCCCCCCCCCCCCCCCCC(=O)OC1C(C)OC(OCC2OC(Oc3c(-c4ccc(O)c(O)c4)oc4cc(O)cc(O)c4c3=O)C(O)C(O)C2O)C(O)C1O (configuration not stated) [Rutin stearate]
Quantity Measured: pIC50
Experimental Result: 5.10

Prompt: Item: O=c1ccc2cc(OC3OC(CO)C(O)C(O)C3O)c(O)cc2o1 (configuration not stated) [Esculin] Test system: Prothrombin (Bos taurus, UniProt P00735) Read-out: pIC50 Value: ?
Completion: 3.60

Prompt: # returns recorded pIC50 (system: Prothrombin (Bos taurus, UniProt P00735)) for CCCCCCCCCCCCCCCC(=O)OCC1OC(Oc2cc(O)cc(O)c2C(=O)CCc2ccc(O)cc2)C(O)C(O)C1O (configuration not stated) [Phloridzin palmitate]
Completion: 4.12

Prompt: Notebook: pull reported pIC50 for Prothrombin (Bos taurus, UniProt P00735), entry CCCCCCCCCCCCCC(=O)OCC1OC(Oc2cc3ccc(=O)oc3cc2O)C(O)C(O)C1O (configuration not stated) [Esculin myristate]
Completion: 4.27

Prompt: For the record CC1OC(OCC2OC(Oc3c(-c4ccc(O)c(O)c4)oc4cc(O)cc(O)c4c3=O)C(O)C(O)C2O)C(O)C(O)C1O (configuration not stated) [Rutin] , what value of pIC50 is listed for Prothrombin (Bos taurus, UniProt P00735)?
Completion: 4.60

* * *

Recorded below: IC50, system Serine protease 1 (Bos taurus).
Dear colleague, please return just the value in µM, with no unit written.

Illustrative cases are given below, each with its answer.
Molecule: CC/C=C\C/C=C\C/C=C\CCCCCCCC(=O)OC1C(C)OC(OCC2OC(Oc3c(-c4ccc(O)c(O)c4)oc4cc(O)cc(O)c4c3=O)C(O)C(O)C2O)C(O)C1O (stereo not drawn) [Rutin linolenate]
System Under Test: Serine protease 1 (Bos taurus)
Sequence (P00760 whole entry): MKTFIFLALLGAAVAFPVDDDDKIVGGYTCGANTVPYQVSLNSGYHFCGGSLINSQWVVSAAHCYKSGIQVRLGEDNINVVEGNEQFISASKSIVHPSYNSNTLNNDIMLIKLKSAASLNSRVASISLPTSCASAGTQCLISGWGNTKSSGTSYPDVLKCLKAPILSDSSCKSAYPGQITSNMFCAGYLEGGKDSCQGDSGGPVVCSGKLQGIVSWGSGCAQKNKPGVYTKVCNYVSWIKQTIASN
IC50 (µM): 50

Molecule: CCCCCCCCCCCC(=O)OCC1OC(Oc2cc3ccc(=O)oc3cc2O)C(O)C(O)C1O (stereo not drawn) [Esculin laurate]
System Under Test: Serine protease 1 (Bos taurus)
IC50 (µM): 350

# evaluate next
Prompt: Query for Serine protease 1 (Bos taurus): what IC50 does the record show for CCCCCCCCCCCCCCCC(=O)OCC1OC(Oc2cc(O)cc(O)c2C(=O)CCc2ccc(O)cc2)C(O)C(O)C1O (stereo not drawn) [Phloridzin palmitate] ?
Completion: 60

* * *

Urokinase-type plasminogen activator (Homo sapiens, UniProt P00749) data, read-out pIC50
Scale: negative log10 of molar concentration, which is what pIC50 denotes.

// known answers, use as guide
Compound: CCCCCCCCCCCCCC(=O)OC1C(C)OC(OCC2OC(Oc3c(-c4ccc(O)c(O)c4)oc4cc(O)cc(O)c4c3=O)C(O)C(O)C2O)C(O)C1O (centres undefined) [Rutin myristate]
pIC50: 4.82
--
Compound: CC1OC(OCC2OC(Oc3c(-c4ccc(O)c(O)c4)oc4cc(O)cc(O)c4c3=O)C(O)C(O)C2O)C(O)C(O)C1O (centres undefined)
pIC50: 5.22
--
Compound: CCCCCCCCCCCCCCCCCC(=O)OC1C(C)OC(OCC2OC(Oc3c(-c4ccc(O)c(O)c4)oc4cc(O)cc(O)c4c3=O)C(O)C(O)C2O)C(O)C1O (centres undefined) [Rutin stearate]
pIC50: 4.82
--
Compound: O=c1c(O)c(-c2ccc(O)c(O)c2)oc2cc(O)cc(O)c12
pIC50: 4.70
--
Compound: O=c1ccc2cc(OC3OC(CO)C(O)C(O)C3O)c(O)cc2o1 (centres undefined)
pIC50: 4.60
--
Compound: CCCC(=O)OC1C(C)OC(OCC2OC(Oc3c(-c4ccc(O)c(O)c4)oc4cc(O)cc(O)c4c3=O)C(O)C(O)C2O)C(O)C1O (centres undefined) [Rutin butyrate]
pIC50: 5.10

Prompt: Param readout = pIC50; param system = Urokinase-type plasminogen activator (Homo sapiens, UniProt P00749); param query = N=C(N)Nc1ccc(C(=O)O)cc1 [4-Guanidinobenzoate] ; response: value
Completion: 4.70

Prompt: Give recorded pIC50 with Urokinase-type plasminogen activator (Homo sapiens, UniProt P00749) for the following compound: O=C(CCc1ccc(O)cc1)c1c(O)cc(O)cc1OC1OC(CO)C(O)C(O)C1O (centres undefined)
Completion: 4.10

Prompt: Short answer please: pIC50, Urokinase-type plasminogen activator (Homo sapiens, UniProt P00749), entry CCCCCCCCCCCCCCCCCC(=O)OCC1OC(Oc2cc3ccc(=O)oc3cc2O)C(O)C(O)C1O (centres undefined) [Esculin stearate]
Completion: 4.05

Prompt: Param readout= pIC50; system= Urokinase-type plasminogen activator (Homo sapiens, UniProt P00749); entry= CCCCCCCCCCCCCCCC(=O)OCC1OC(Oc2cc3ccc(=O)oc3cc2O)C(O)C(O)C1O (centres undefined) [Esculin palmitate] ; returns value.
Completion: 4.00

Prompt: Record CCCCCCCC(=O)OC1C(C)OC(OCC2OC(Oc3c(-c4ccc(O)c(O)c4)oc4cc(O)cc(O)c4c3=O)C(O)C(O)C2O)C(O)C1O (centres undefined) [Rutin caprylate] : what is its pIC50 with Urokinase-type plasminogen activator (Homo sapiens, UniProt P00749)?
Completion: 4.49

Prompt: Notebook: pull reported pIC50 for Urokinase-type plasminogen activator (Homo sapiens, UniProt P00749), entry CCCCCCCCCCCCCC(=O)OCC1OC(Oc2cc3ccc(=O)oc3cc2O)C(O)C(O)C1O (centres undefined) [Esculin myristate]
Completion: 4.00

Prompt: What reported pIC50 corresponds to CCCCCCCCCCCCCCCC(=O)OC1C(C)OC(OCC2OC(Oc3c(-c4ccc(O)c(O)c4)oc4cc(O)cc(O)c4c3=O)C(O)C(O)C2O)C(O)C1O (centres undefined) [Rutin palmitate] on Urokinase-type plasminogen activator (Homo sapiens, UniProt P00749)?
Completion: 4.82

Prompt: I'm curious: which pIC50 was measured for CCCCCCCC/C=C\CCCCCCCC(=O)OC1C(C)OC(OCC2OC(Oc3c(-c4ccc(O)c(O)c4)oc4cc(O)cc(O)c4c3=O)C(O)C(O)C2O)C(O)C1O (centres undefined) [Rutin oleate] tested on Urokinase-type plasminogen activator (Homo sapiens, UniProt P00749)?
Completion: 4.60
